Test system: dermal CYP1A
protocolDescription: Dermal microsomal CYP1A enzymatic activity (7-ethoxyresorufin-O-deethylase), inhibition or enhancement
experimentalParameters: at certain concentration (1, 10 or 100 μM)
measuredQuantity: inhibitory effect on dermal CYP1A activity, in words

compound	value
C[C@@H]1O[C@@H](O[C@H]2[C@H](Oc3cc(O)c4c(c3)O[C@H](c3ccc(O)cc3)CC4=O)O[C@H](CO)[C@@H](O)[C@@H]2O)[C@H](O)[C@H](O)[C@H]1O [Narigin]	inhibition effects
O=C(O)[C@H]1O[C@@H](Oc2cc3oc(-c4ccccc4)cc(=O)c3c(O)c2O)[C@H](O)[C@@H](O)[C@@H]1O [Baicalin]	inhibition effects
O=c1cc(-c2ccc(O)c(O)c2)oc2cc(O[C@@H]3O[C@H](CO)[C@@H](O)[C@H](O)[C@H]3O)cc(O)c12 [Luteolin-7-glucoside]	inhibition effects

====

Tested on: liver CYP1A
protocolDescription: Liver microsomal CYP1A enzymatic activity, inhibition or enhancement
experimentalParameters: compound 1 μM; liver microsomes
I'd appreciate it if you could supply liver CYP1A activity (% of control group) values for the items below.
Numeric only. Scale: %

input: Short answer please: liver CYP1A activity (% of control group), liver CYP1A, entry Oc1cc(O)c2c(c1)O[C@@H](c1ccc(O)c(O)c1)[C@@H](O)C2 [(+)-Epicatechin]
output: 124.29

input: Follow-up item: COc1ccc([C@@H]2CC(=O)c3c(O)cc(O[C@@H]4O[C@H](CO[C@@H]5O[C@@H](C)[C@H](O)[C@@H](O)[C@H]5O)[C@@H](O)[C@H](O)[C@H]4O)cc3O2)cc1O
output: 99.65

input: Ok, now O=C(O)[C@H]1O[C@@H](Oc2cc3oc(-c4ccccc4)cc(=O)c3c(O)c2O)[C@H](O)[C@@H](O)[C@@H]1O
output: 106.19

====

System: dermal CYP1A
protocolDescription: Dermal microsomal CYP1A enzymatic activity (7-ethoxyresorufin-O-deethylase), inhibition or enhancement
experimentalParameters: at certain concentration (1, 10 or 100 μM)
measuredQuantity: inhibitory effect on dermal CYP1A activity, in words

Below: 8 molecules and their reported inhibitory effect on dermal CYP1A activity, in words.
molecule	value
Oc1cc(O)c2c(c1)O[C@H](c1ccc(O)c(O)c1)[C@H](O)C2 [(−)-Epicatechin]	inhibition effects
COc1ccc([C@@H]2CC(=O)c3c(O)cc(O[C@@H]4O[C@H](CO[C@@H]5O[C@@H](C)[C@H](O)[C@@H](O)[C@H]5O)[C@@H](O)[C@H](O)[C@H]4O)cc3O2)cc1O	inhibition effects
O=c1c(-c2ccc(O)cc2)coc2cc(O)cc(O)c12	inhibition effects
C=C(C)C1CC=C(C)CC1 (single isomer, unassigned; (+)) [(+)-Limonene]	inhibition effects
Oc1cc(O)c2c(c1)O[C@@H](c1ccc(O)c(O)c1)[C@@H](O)C2 [(+)-Epicatechin]	inhibition effects
O=c1c(O[C@@H]2O[C@H](CO)[C@@H](O)[C@H](O)[C@H]2O)c(-c2ccc(O)c(O)c2)oc2cc(O)cc(O)c12	inhibition effects
C[C@@H]1O[C@@H](OC[C@H]2O[C@@H](Oc3c(-c4ccc(O)c(O)c4)oc4cc(O)cc(O)c4c3=O)[C@H](O)[C@@H](O)[C@@H]2O)[C@H](O)[C@H](O)[C@H]1O	inhibition effects
C[C@@H]1O[C@@H](Oc2c(-c3ccc(O)c(O)c3)oc3cc(O)cc(O)c3c2=O)[C@H](O)[C@H](O)[C@H]1O	inhibition effects

input: Could you share which inhibitory effect on dermal CYP1A activity, in words value was measured for O=c1cc(-c2ccccc2)oc2cc(O)c(O)c(O)c12 ?
output: inhibition effects

input: Field entry: CC1(C)CC[C@]2(C(=O)O)CC[C@]3(C)C(=CC[C@@H]4[C@@]5(C)CC[C@H](O)C(C)(C)[C@@H]5CC[C@]43C)[C@@H]2C1
output: inhibition effects
